B1: PLAGL1 (parent)
chain: LELGSTEVLLDHLKAHAEEKPPSG

- Variants of: B1
- ASSAY NAME: protein stability index of a GFP-peptide fusion (GPS, HEK-293T) (PSI 1-6); higher = more stable;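 note: lentivirally expressed fusions sorted by FACS into six bins by GFP to DsRed ratio, PSI derived from sequencing read proportions per bin multiplied by bin number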
- APPLIED CONDITIONS: c terminus: a fixed tail appended
// classify(record): look up protein stability index in ranges A: < 4; B: ≥ 4 and < 5; C: ≥ 5

INPUT: Band for "H12V" ?
OUTPUT: A

INPUT: Band for "S5A" ?
OUTPUT: A

INPUT: Band for "P22M" ?
OUTPUT: A

INPUT: Band for "G24W" ?
OUTPUT: A

INPUT: Band for "S23W" ?
OUTPUT: A

INPUT: Band for "H12Q" ?
OUTPUT: B

INPUT: Band for "P21M" ?
OUTPUT: B

INPUT: Band for "T6A" ?
OUTPUT: A

INPUT: Band for "L9R" ?
OUTPUT: B

INPUT: Band for "L9S" ?
OUTPUT: C

INPUT: Band for "L1G" ?
OUTPUT: B

INPUT: Band for "T6K" ?
OUTPUT: C

INPUT: Band for "A17M" ?
OUTPUT: A

INPUT: Band for "E7D" ?
OUTPUT: C

INPUT: Band for "E7L" ?
OUTPUT: A

INPUT: Band for "G4Q" ?
OUTPUT: A

INPUT: Band for "H12L" ?
OUTPUT: A

INPUT: Band for "K20D" ?
OUTPUT: B

INPUT: Band for "H16Y" ?
OUTPUT: A

INPUT: Band for "L3N" ?
OUTPUT: C

INPUT: Band for "A17I" ?
OUTPUT: A

INPUT: Band for "L1P" ?
OUTPUT: C

INPUT: Band for "A17P" ?
OUTPUT: B

INPUT: Band for "T6P" ?
OUTPUT: B

INPUT: Band for "S23F" ?
OUTPUT: A

INPUT: Band for "D11W" ?
OUTPUT: A

INPUT: Band for "E18C" ?
OUTPUT: A

INPUT: Band for "G4I" ?
OUTPUT: A

INPUT: Band for "L10T" ?
OUTPUT: C

INPUT: Band for "S23Q" ?
OUTPUT: B

INPUT: Band for "L10G" ?
OUTPUT: C

INPUT: Band for "L1W" ?
OUTPUT: B

INPUT: Band for "H12T" ?
OUTPUT: B

INPUT: Band for "L3C" ?
OUTPUT: C

INPUT: Band for "V8P" ?
OUTPUT: B

INPUT: Band for "S23P" ?
OUTPUT: B

INPUT: Band for "E18Y" ?
OUTPUT: A

INPUT: Band for "E18K" ?
OUTPUT: A

INPUT: Band for "A15H" ?
OUTPUT: B

INPUT: Band for "T6M" ?
OUTPUT: A

INPUT: Band for "K14H" ?
OUTPUT: C

INPUT: Band for "H12D" ?
OUTPUT: C

INPUT: Band for "V8A" ?
OUTPUT: B

INPUT: Band for "A17H" ?
OUTPUT: B

INPUT: Band for "L3Q" ?
OUTPUT: C

INPUT: Band for "E7T" ?
OUTPUT: B

INPUT: Band for "L3H" ?
OUTPUT: C

INPUT: Band for "H16T" ?
OUTPUT: B

INPUT: Band for "G4W" ?
OUTPUT: A

INPUT: Band for "K20F" ?
OUTPUT: A

INPUT: Band for "A15I" ?
OUTPUT: B

INPUT: Band for "G4K" ?
OUTPUT: B

INPUT: Band for "T6C" ?
OUTPUT: B

INPUT: Band for "E18I" ?
OUTPUT: A

INPUT: Band for "H12E" ?
OUTPUT: C

INPUT: Band for "K14P" ?
OUTPUT: C

INPUT: Band for "H12R" ?
OUTPUT: B

INPUT: Band for "K20I" ?
OUTPUT: A

INPUT: Band for "G24K" ?
OUTPUT: B

INPUT: Band for "E2L" ?
OUTPUT: A

INPUT: Band for "G24Y" ?
OUTPUT: A

INPUT: Band for "G4C" ?
OUTPUT: A

INPUT: Band for "H12C" ?
OUTPUT: B

INPUT: Band for "L1R" ?
OUTPUT: C

INPUT: Band for "S23N" ?
OUTPUT: B

INPUT: Band for "A15K" ?
OUTPUT: A

INPUT: Band for "L10A" ?
OUTPUT: C

INPUT: Band for "P21H" ?
OUTPUT: B

INPUT: Band for "E18R" ?
OUTPUT: A

INPUT: Band for "G4D" ?
OUTPUT: C

INPUT: Band for "D11R" ?
OUTPUT: A

INPUT: Band for "A17Y" ?
OUTPUT: A

INPUT: Band for "H16E" ?
OUTPUT: B

INPUT: Band for "L13C" ?
OUTPUT: B
